meta.source: ChEMBL document CHEMBL5356940

Below, each entry is listed with its recorded Papp A→B.
Assay: Apparent permeability across apical to basolateral side in dog MDCK-MDR1 cells
Assay type: ADME, cell-based, Canis lupus familiaris
Give the number; ×10⁻⁶ cm/s is assumed, so skip it.

Past entries and their recorded results:
CS(=O)(=O)c1ccc(Nc2ncnc3sc(-c4cccnc4Cl)cc23)cc1: 4.73
CSc1ccc(Nc2ncnc3sc(-c4ccncc4C)cc23)cc1: 3.7
Cc1ncccc1-c1cc2ncnc(Nc3ccc(N4CCCC4=O)cc3)c2s1: 3.15
CSc1ccc(Nc2ncnc3cc(-c4cccnc4Cl)sc23)cc1: 12.9
CS(=O)(=O)c1ccc(Nc2ncnc3cc(-c4cccnc4Cl)sc23)cc1: 1.33
Cn1cc(-c2cc3c(Nc4ccc(S(C)(=O)=O)cc4)ncnc3s2)cn1: 2.88
Cc1cnccc1-c1cc2c(Nc3ccc(S(C)(=O)=O)cc3)ncnc2s1: 3.13
Cc1ncccc1-c1cc2c(Nc3ccc(S(C)(=O)=O)cc3)ncnc2s1: 1.33

Tell me the measured Papp A→B of Cc1ncccc1-c1cc2ncnc(Nc3ccc(C4CC4)cc3)c2s1 , please.
9.95

Another compound: CS(=O)(=O)c1ccc(Nc2ncnc3scc(Cl)c23)cc1
14.2

Follow-up item: Cc1ccncc1-c1cc2c(Nc3ccc(S(C)(=O)=O)cc3)ncnc2s1
2.45
